This listing pairs compounds with measured cell viability.
- System: HL-60
- Test protocol: cell viability (% survival relative to DMSO control); higher = less cytotoxic
- Condition: 0.001 µM; 72 h; co-treatment: DMSO vehicle
Entry rule: numbers only, all in %.

| Compound | cell viability, % |
| --- | --- |
| O=C(O)C(=S)Cc1c[nH]c2ccc(F)cc12 | 99.1 |
| CCN(CC)CCCC(C)Nc1ccnc2cc(Cl)ccc12 (configuration not stated) | 104 |
| CC[C@H](C)C(=O)O[C@H]1C[C@@H](C)C=C2C=C[C@H](C)[C@H](CC[C@@H]3C[C@@H](O)CC(=O)O3)[C@H]21 | 96.8 |

Query: Field request: cell viability | item: CCCCCCCCCCC[C@@H](C[C@@H]1OC(=O)[C@H]1CCCCCC)OC(=O)[C@H](CC(C)C)NC=O
Response: 93.7

Query: Try the compound COc1ccc(CNC(=O)Nc2ncc([N+](=O)[O-])s2)cc1
Response: 103

Query: Field entry: O=C1O/C(=C/Br)CCC1c1cccc2ccccc12 (configuration not stated)
Response: 100

Query: Another: O=C(NNc1ccccc1)c1ccncc1
Response: 102
